// reported percent of parent per item
Tgt: codon optimized Vif SLQ144-146AAA MAPPIT prey (pMG2-VifoptSLQ), P12504
Assay protocol: MAPPIT
Condition notes: chain shown with the change

* Apobec3G-GFP MAPPIT bait (pCEL-Apobec3G-GFP), Q9HC16 H81L (protein) MKPHFRNTVERMYRDTFSYNFYNRPILSRRNTVWLCYEVKTKGPSRPPLDAKIFRGQVYSELKYHPEMRFFHWFSKWRKLLRDQEYEVTWYISWSPCTKCTRDMATFLAEDPKVTLTIFVARLYYFWDPDYQEALRSLCQKRDGPRATMKIMNYDEFQHCWSKFVYSQRELFEPWNNLPKYYILLHIMLGEILRHSMDPPTFTFNFNNEPWVRGRHETYLCYEVERMHNDTWVLLNQRRGFLCNQAPHKHGFLEGRHAELCFLDVIPFWKLDLDQDYRVTCFTSWSPCFSCAQEMAKFISKNKHVSLCIFTARIYDDQGRCQEGLRTLAEAGAKISIMTYSEFKHCWDTFVDHQGCPFQPWDGLDEHSQDLSGRLRAILQNQEN | 53 % of WT
* Apobec3G-GFP MAPPIT bait (pCEL-Apobec3G-GFP), Q9HC16 K79M (protein) MKPHFRNTVERMYRDTFSYNFYNRPILSRRNTVWLCYEVKTKGPSRPPLDAKIFRGQVYSELKYHPEMRFFHWFSKWRMLHRDQEYEVTWYISWSPCTKCTRDMATFLAEDPKVTLTIFVARLYYFWDPDYQEALRSLCQKRDGPRATMKIMNYDEFQHCWSKFVYSQRELFEPWNNLPKYYILLHIMLGEILRHSMDPPTFTFNFNNEPWVRGRHETYLCYEVERMHNDTWVLLNQRRGFLCNQAPHKHGFLEGRHAELCFLDVIPFWKLDLDQDYRVTCFTSWSPCFSCAQEMAKFISKNKHVSLCIFTARIYDDQGRCQEGLRTLAEAGAKISIMTYSEFKHCWDTFVDHQGCPFQPWDGLDEHSQDLSGRLRAILQNQEN | 56 % of WT
* Apobec3G-GFP MAPPIT bait (pCEL-Apobec3G-GFP), Q9HC16 R102G (protein) MKPHFRNTVERMYRDTFSYNFYNRPILSRRNTVWLCYEVKTKGPSRPPLDAKIFRGQVYSELKYHPEMRFFHWFSKWRKLHRDQEYEVTWYISWSPCTKCTGDMATFLAEDPKVTLTIFVARLYYFWDPDYQEALRSLCQKRDGPRATMKIMNYDEFQHCWSKFVYSQRELFEPWNNLPKYYILLHIMLGEILRHSMDPPTFTFNFNNEPWVRGRHETYLCYEVERMHNDTWVLLNQRRGFLCNQAPHKHGFLEGRHAELCFLDVIPFWKLDLDQDYRVTCFTSWSPCFSCAQEMAKFISKNKHVSLCIFTARIYDDQGRCQEGLRTLAEAGAKISIMTYSEFKHCWDTFVDHQGCPFQPWDGLDEHSQDLSGRLRAILQNQEN | 44 % of WT

--- query ---
Given the entry Apobec3G-GFP MAPPIT bait (pCEL-Apobec3G-GFP), Q9HC16 R30L (protein) MKPHFRNTVERMYRDTFSYNFYNRPILSRLNTVWLCYEVKTKGPSRPPLDAKIFRGQVYSELKYHPEMRFFHWFSKWRKLHRDQEYEVTWYISWSPCTKCTRDMATFLAEDPKVTLTIFVARLYYFWDPDYQEALRSLCQKRDGPRATMKIMNYDEFQHCWSKFVYSQRELFEPWNNLPKYYILLHIMLGEILRHSMDPPTFTFNFNNEPWVRGRHETYLCYEVERMHNDTWVLLNQRRGFLCNQAPHKHGFLEGRHAELCFLDVIPFWKLDLDQDYRVTCFTSWSPCFSCAQEMAKFISKNKHVSLCIFTARIYDDQGRCQEGLRTLAEAGAKISIMTYSEFKHCWDTFVDHQGCPFQPWDGLDEHSQDLSGRLRAILQNQEN , report its measured percent of parent.
21 % of WT
